- Tested Target: FVIIa (Homo sapiens)
- Construct: with about 1% of the total amount in the proteolytically active form factor VIIa
- Sequence (P08709 213-466 limits assumed): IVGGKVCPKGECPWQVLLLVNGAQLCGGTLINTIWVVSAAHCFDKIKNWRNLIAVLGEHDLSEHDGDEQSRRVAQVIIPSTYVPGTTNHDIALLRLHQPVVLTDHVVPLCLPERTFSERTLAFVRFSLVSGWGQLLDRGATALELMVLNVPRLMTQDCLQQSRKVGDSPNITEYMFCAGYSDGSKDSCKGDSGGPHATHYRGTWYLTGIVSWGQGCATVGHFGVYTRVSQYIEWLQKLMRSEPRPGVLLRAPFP
- Sequence (P08709 61-212 limits assumed): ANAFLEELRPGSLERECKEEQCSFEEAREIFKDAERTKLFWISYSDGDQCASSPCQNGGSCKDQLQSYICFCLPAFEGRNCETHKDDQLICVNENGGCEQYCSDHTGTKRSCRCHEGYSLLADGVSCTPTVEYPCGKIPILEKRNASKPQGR
- Sequence (P13726 33-295 partner): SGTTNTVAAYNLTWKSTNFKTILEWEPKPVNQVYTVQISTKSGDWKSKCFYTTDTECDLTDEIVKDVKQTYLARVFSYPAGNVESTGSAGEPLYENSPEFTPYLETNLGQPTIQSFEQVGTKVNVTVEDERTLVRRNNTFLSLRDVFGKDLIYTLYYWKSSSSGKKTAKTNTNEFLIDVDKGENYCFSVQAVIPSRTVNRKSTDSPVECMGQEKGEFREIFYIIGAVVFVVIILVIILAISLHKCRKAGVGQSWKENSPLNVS
- Assay Protocol: FVIIa Ki (25° C.): FVIIa peptide substrate assay
- Type: biochemical
- Assay Conditions: S2288 peptide substrate, full-length human TF
- Protocol: The effectiveness of compounds of the present invention as inhibitors of the coagulation Factors, VIIa, IXa, Xa, XIa, XIIa, plasma kallikrein or thrombin, tissue kallikrein and activated protein C, can be determined using a relevant purified serine protease, respectively, and an appropriate synthetic substrate. The rate of hydrolysis of the chromogenic or fluorogenic substrate by the relevant serine protease was measured both in the absence and presence of compounds of the present invention. […]
pKi: −log10 of the molar value. Where a name gives a salt, the structure may show the parent alone.
Measured pKi values are reported for all entries that follow.

| Compound | pKi |
| --- | --- |
| COc1ccc2cc1CCC(=O)Nc1ccc(S(=O)(=O)C(F)(F)F)c(c1)CN(C)C(=O)[C@@H]2Nc1ccc2c(N)nccc2c1 (single isomer, unassigned) [Example 34, trifluoroacetic acid salt] | 8.30 |
| CN1Cc2cc(ccc2S(=O)(=O)C2CC2)NC(=O)N(Cc2ccccc2)CCc2cccc(c2)[C@@H](Nc2ccc3c(N)ncc(F)c3c2)C1=O (single isomer, unassigned) | 7.10 |
| CN1Cc2cc(ccc2S(=O)(=O)C2CC2)NC(=O)CCc2cc(ccc2OCC2CCC2)[C@@H](Nc2ccc3c(N)ncc(F)c3c2)C1=O | 8.22 |
| CN1Cc2cc(ccc2S(=O)(=O)C2CC2)NC(=O)OCc2cccc(c2)[C@@H](Nc2ccc3c(N)nccc3c2)C1=O (single isomer, unassigned) | 6.25 |
| COc1ccc2cc1CCC(=O)Nc1ccc(S(=O)(=O)C3CC3)c(c1)CN(C)C(=O)[C@@H]2Nc1ccc2c(N)ncc(F)c2c1 (single isomer, unassigned) | 8.30 |

###

List of pKi values.
- Tested Target: FVIIa (Homo sapiens)
- Construct: with about 1% of the total amount in the proteolytically active form factor VIIa
- Assay Protocol: FVIIa Ki (25° C.): FVIIa peptide substrate assay
- Assay type: biochemical
- Assay Conditions: S2288 peptide substrate, full-length human TF
pKi: −log10 of the molar value. Counter-ions that a name gives are not always drawn.

| Compound | Tested Target | pKi |
| --- | --- | --- |
| COc1ccc2cc1[C@@H](C)CN(C)C(=O)Nc1ccc(S(=O)(=O)C3CC3)c(c1)CN(C)C(=O)[C@@H]2Nc1ccc2c(N)ncc(F)c2c1 (single isomer, unassigned) | FVIIa (Homo sapiens) | 8.30 |
| CN1Cc2cc(ccc2S(=O)(=O)C2CC2)NC(=O)CCc2cc(ccc2F)[C@@H](Nc2ccc3c(N)ncc(F)c3c2)C1=O (single isomer, unassigned) | FVIIa (Homo sapiens) | 8.30 |
| C[C@@H]1CC(=O)Nc2ccc(S(=O)(=O)C3CC3)c(c2)CN(C)C(=O)[C@H](Nc2ccc3c(N)ncc(F)c3c2)c2ccc(OCC(F)F)c1c2 (single isomer, unassigned) [Example 38, trifluoroacetic acid salt] | FVIIa (Homo sapiens) | 8.30 |
| CN1Cc2cc(cc(F)c2OC(CF)CF)NC(=O)CCc2cc(ccc2OCC(F)F)[C@@H](Nc2ccc(C(=N)N)cc2)C1=O (single isomer, unassigned) [Example 42, trifluoroacetic acid salt] | FVIIa (Homo sapiens) | 8.30 |
| COc1c(F)cc2cc1CCC(=O)Nc1ccc(S(=O)(=O)C3CC3)c(c1)CN(C)C(=O)[C@@H]2Nc1ccc2c(N)ncc(F)c2c1 (single isomer, unassigned) | FVIIa (Homo sapiens) | 8.00 |
| CN1Cc2cc(ccc2S(=O)(=O)C2CC2)NC(=O)CCc2cc(ccc2OCc2ccccc2)[C@@H](Nc2ccc3c(N)ncc(F)c3c2)C1=O (single isomer, unassigned) | FVIIa (Homo sapiens) | 8.22 |
| CN1Cc2cc(ccc2S(=O)(=O)C2CC2)NC(=O)CCc2cc(ccc2OCC2CC2)[C@@H](Nc2ccc3c(N)ncc(F)c3c2)C1=O | FVIIa (Homo sapiens) | 8.30 |
| COc1ccc2cc1CCOC(=O)Nc1ccc(S(=O)(=O)C3CC3)c(c1)CN(C)C(=O)[C@@H]2Nc1ccc2c(N)nccc2c1 (single isomer, unassigned) | FVIIa (Homo sapiens) | 7.36 |
| C[C@@H]1COC(=O)Nc2ccc(S(=O)(=O)C3CC3)c(c2)CN(C)C(=O)[C@H](Nc2ccc3c(N)nccc3c2)c2cccc1c2 (single isomer, unassigned) | FVIIa (Homo sapiens) | 6.94 |
| CCCCOc1ccc2cc1CCC(=O)Nc1ccc(S(=O)(=O)C3CC3)c(c1)CN(C)C(=O)[C@@H]2Nc1ccc2c(N)ncc(F)c2c1 | FVIIa (Homo sapiens) | 8.30 |
| CN1CCc2cc(ccc2OCC(F)F)[C@@H](Nc2ccc3c(N)ncc(F)c3c2)C(=O)N(C)Cc2cc(ccc2S(=O)(=O)C(F)F)NC1=O (single isomer, unassigned) [Example 39, trifluoroacetic acid salt] | FVIIa (Homo sapiens) | 6.92 |
| C[C@@H]1CC(=O)Nc2ccc(OC(F)F)c(c2)CN(C)C(=O)[C@H](Nc2ccc(C(=N)N)cc2)c2ccc(OCC(F)F)c1c2 (single isomer, unassigned) [Example 43, trifluoroacetic acid salt] | FVIIa (Homo sapiens) | 8.30 |
| CN1Cc2cc(ccc2S(=O)(=O)C2CC2)NC(=O)CCc2cc(ccc2OCC(F)F)[C@@H](Nc2ccc3c(N)ncc(F)c3c2)C1=O | FVIIa (Homo sapiens) | 8.30 |
| CN1Cc2cc(ccc2S(=O)(=O)C2CC2)NC(=O)COc2cccc(c2)[C@@H](Nc2ccc3c(N)nccc3c2)C1=O | FVIIa (Homo sapiens) | 6.15 |
| CN1Cc2cc(ccc2S(=O)(=O)C2CC2)NC(=O)CCc2cccc(c2)[C@@H](Nc2ccc3c(N)nccc3c2)C1=O (single isomer, unassigned) | FVIIa (Homo sapiens) | 8.30 |
| CN1Cc2cc(ccc2S(=O)(=O)C2CC2)NC(=O)CCc2cccc(c2)[C@@H](Nc2ccc3c(N)ncc(F)c3c2)C1=O (single isomer, unassigned) | FVIIa (Homo sapiens) | 8.15 |
| CN1Cc2cc(cc(F)c2OCC(F)F)NC(=O)CCc2cc(ccc2OCC(F)F)[C@@H](Nc2ccc(C(=N)N)cc2)C1=O (single isomer, unassigned) [Example 40, trifluoroacetic acid salt] | FVIIa (Homo sapiens) | 8.30 |
| CC(C)Oc1ccc2cc1CCC(=O)Nc1ccc(S(=O)(=O)C3CC3)c(c1)CN(C)C(=O)[C@@H]2Nc1ccc2c(N)ncc(F)c2c1 | FVIIa (Homo sapiens) | 8.30 |
| C[C@@H]1CC(=O)Nc2cccc(c2)[C@@H](CC(=O)O)NC(=O)[C@H](Nc2ccc(C(=N)N)cc2)c2ccc(OCC(F)F)c1c2 [Example 44, trifluoroacetic acid salt] | FVIIa (Homo sapiens) | 8.30 |
| CN1CCc2cc(ccc2OCc2ccccc2)C(Nc2ccc3c(N)ncc(F)c3c2)C(=O)N(C)Cc2cc(ccc2S(=O)(=O)C2CC2)NC1=O (centres unmarked) [Example 19, trifluoroacetic acid salt] | FVIIa (Homo sapiens) | 6.94 |

###

- Tested Target: FVIIa (Homo sapiens)
- Construct: with about 1% of the total amount in the proteolytically active form factor VIIa
- Assay Protocol: FVIIa Ki (25° C.): FVIIa peptide substrate assay
- Type: biochemical
- Assay Conditions: S2288 peptide substrate, full-length human TF
pKi: −log10 of the molar value. Counter-ions that a name gives are not always drawn.
Outcome Measure: pKi

| Molecule | Outcome Measure | Assay Result |
| --- | --- | --- |
| CN1Cc2cc(ccc2S(=O)(=O)C2CC2)NC(=O)OCCc2cccc(c2)[C@@H](Nc2ccc3c(N)nccc3c2)C1=O | pKi | 6.73 |
| COc1ccc2cc1COCC(=O)Nc1ccc(S(=O)(=O)C3CC3)c(c1)CN(C)C(=O)[C@@H]2Nc1ccc2c(N)nccc2c1 | pKi | 7.64 |
| COc1ccc2cc1[C@H](C)CN(C)C(=O)Nc1ccc(S(=O)(=O)C3CC3)c(c1)CN(C)C(=O)C2Nc1ccc2c(N)nccc2c1 (mixture of isomers) [Example 12, trifluoroacetic acid salt] | pKi | 7.33 |
| CN1CCc2cccc(c2)[C@@H](Nc2ccc(C(=N)N)cc2)C(=O)N(C)Cc2cc(cc(F)c2OC(F)F)NC1=O (single isomer, unassigned) [Example 35, trifluoroacetic acid salt] | pKi | 8.22 |
| COc1cc2cc(c1)[C@@H](Nc1ccc3c(N)ncc(F)c3c1)C(=O)N(C)Cc1cc(ccc1S(=O)(=O)C1CC1)NC(=O)CC2 (single isomer, unassigned) | pKi | 8.22 |
| C[C@H]1CC(=O)Nc2ccc(S(=O)(=O)C3CC3)c(c2)CN(C)C(=O)[C@H](Nc2ccc3c(N)ncc(F)c3c2)c2ccc(OCC(F)F)c1c2 (single isomer, unassigned) [Example 32, trifluoroacetic acid salt] | pKi | 7.51 |
| CC(C)COc1ccc2cc1CCC(=O)Nc1ccc(S(=O)(=O)C3CC3)c(c1)CN(C)C(=O)[C@@H]2Nc1ccc2c(N)ncc(F)c2c1 | pKi | 8.30 |
| CN1Cc2cc(ccc2S(=O)(=O)C2CC2)NC(=O)OCC(C)(C)c2cccc(c2)[C@@H](Nc2ccc3c(N)nccc3c2)C1=O (single isomer, unassigned) | pKi | 5.83 |
| CN1Cc2cc(ccc2S(=O)(=O)C2CC2)NC(=O)NCCc2cccc(c2)[C@@H](Nc2ccc3c(N)ncc(F)c3c2)C1=O (single isomer, unassigned) [Example 41, trifluoroacetic acid salt] | pKi | 7.77 |
